- SYSTEM TESTED: CBL-B (residues 36-427) (Homo sapiens, UniProt Q13191)
- Construct: Purified CBL-B (residues 36-427) and C-CBL (residues 46-435) proteins from baculovirus-infected insect cells; made in house; host or cells: baculovirus-infected insect cells
- ASSAY NAME: Ligand Displacement Assay (LDA), HTRF competitive binding against BODIPY-labeled fluorescent tracer, CBL-B
- EXPERIMENTAL CONTEXT: geometric mean of the number of tests, read-out: CBL-B Ki (nM) GMean
Can you tell me Ki for the items I'm about to list?
The response must be a number in nM with no trailing unit.

# Ki (compound: CC(O)CNC(C)c1nc(C2CC2)cc2c(-c3cccc(C(c4nncn4C)C4CCC4)c3)n[nH]c12 (single isomer, unassigned) [Example H1] ) is 4.3

Quick note, Ki for C[C@@H](N[C@H]1CCOC1)c1nc(C(F)(F)F)cc2c(-c3cccc([C@H](c4nncn4C)C4CCC4)c3)n[nH]c12 (single isomer, unassigned) [Example C3] landed at 7.8

Measured Ki, C[C@H](c1nc(C(F)(F)F)cc2c(-c3cccc(C4(Cc5nncn5C)COC4)c3)n[nH]c12)N1CCO[C@@H](C)C1 (single isomer, unassigned) [Example D12] : 15.3

The compound identified as C[C@H](N[C@@H]1CC[C@@H]1O)c1nc(C(F)(F)F)cc2c(-c3cccc([C@H](c4nncn4C)C4CCC4)c3)n[nH]c12 (single isomer, unassigned) [Example D28] registered its Ki at 0.7

Consider CC(=O)NC(C)c1nc(C(F)(F)F)cc2c(-c3cccc(C4(Cc5nncn5C)COC4)c3)n[nH]c12 (single isomer, unassigned) [Example M1] . Its measured Ki is 26.3

Entry Cn1cnnc1CC1(c2cccc(-c3n[nH]c4c(CN5C[C@@H](F)[C@@H](F)C5)nc(C(F)(F)F)cc34)c2)COC1 [Example C67] — recorded Ki = 12.6

###

- SYSTEM TESTED: C-CBL (46-435) (Homo sapiens)
- Construct: N-terminal biotinylated WT CBL-B (36-427) and C-CBL (46-435) were captured on a streptavidin (SA) coated sensor chip
- Sequence (P22681 46-435): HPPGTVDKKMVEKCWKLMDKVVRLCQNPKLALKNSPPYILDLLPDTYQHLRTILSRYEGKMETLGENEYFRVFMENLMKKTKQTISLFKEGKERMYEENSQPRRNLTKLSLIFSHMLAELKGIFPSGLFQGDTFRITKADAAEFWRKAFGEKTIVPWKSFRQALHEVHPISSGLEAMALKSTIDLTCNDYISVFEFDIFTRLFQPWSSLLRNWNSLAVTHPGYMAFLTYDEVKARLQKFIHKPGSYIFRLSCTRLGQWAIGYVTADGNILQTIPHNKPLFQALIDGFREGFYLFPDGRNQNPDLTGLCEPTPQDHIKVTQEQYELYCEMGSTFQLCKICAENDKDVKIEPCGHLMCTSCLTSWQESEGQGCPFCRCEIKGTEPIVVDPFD
- ASSAY NAME: Surface Plasmon Resonance (SPR) assay, binding affinity and kinetics, C-CBL
- EXPERIMENTAL CONTEXT: SPR at 10° C., biotinylated C-CBL (46-435) on streptavidin chip; geometric mean; read-out: C-CBL SPR Kd (nM) GMean
Could you please mark yes (1) for values of Kd below 200 nM and no (0) for values at or above it?

Task item: Below 200 nM on Kd? Entry Cn1cnnc1CC1(c2cccc(-c3n[nH]c4c(CN[C@H]5CCC(F)(F)C5)nc(C(F)(F)F)cc34)c2)COC1 [Example C38]
Reply: yes (1)

Task item: Hello, I'm reviewing records and need to know if Kd of Cn1cnnc1[C@@H](c1cccc(-c2n[nH]c3c(C4CCCCN4)nc(C(F)(F)F)cc23)c1)C1CCC1 (single isomer, unassigned) [Example L2] is below 200 nM. Could you check?
Reply: no (0)

Task item: Kd under 200 nM? Item: C[C@@H](c1nc(C(F)(F)F)cc2c(-c3cccc(C4(Cc5nncn5C)COC4)c3)n[nH]c12)N1CCC(F)(F)C1 (single isomer, unassigned) [Example D5]
Reply: no (0)

Task item: Dear reviewer, please state whether C[C@H](NC1CC(F)(F)C1)c1nc(C(F)(F)F)cc2c(-c3cccc([C@H](c4nncn4C)C4CCC4)c3)n[nH]c12 (single isomer, unassigned) [Example D90] has Kd strictly beneath 200 nM.
Reply: yes (1)

Task item: Dear reviewer, please state whether Cn1cnnc1[C@@H](c1cccc(-c2n[nH]c3c(CN4CCC4)nc(C(F)(F)F)cc23)c1)C1CCC1 [Example D83] has Kd strictly beneath 200 nM.
Reply: yes (1)

Task item: Does the reported Kd of Cn1cnnc1[C@@H](c1cccc(-c2n[nH]c3c(CN4C[C@@H](O)[C@H](O)C4)nc(C(F)(F)F)cc23)c1)C1CCC1 [Example C74] stay below 200 nM?
Reply: yes (1)

###

- SYSTEM TESTED: CBL-B (residues 36-427) (Homo sapiens)
- Construct: Purified CBL-B (residues 36-427) and C-CBL (residues 46-435) proteins from baculovirus-infected insect cells; made in house; host or cells: baculovirus-infected insect cells
- ASSAY NAME: Ligand Displacement Assay (LDA), HTRF competitive binding against BODIPY-labeled fluorescent tracer, CBL-B
- EXPERIMENTAL CONTEXT: geometric mean of the number of tests, read-out: CBL-B Ki (nM) GMean
MEASURE: Ki (nM)
Write the number in nM without appending the unit.

CC[C@H](c1cccc(-c2n[nH]c3c([C@@H](C)NC[C@H](C)O)nc(C(F)(F)F)cc23)c1)c1nncn1C (single isomer, unassigned) has a reported Ki of 0.8

Entry Cn1cnnc1[C@@H](c1cccc(-c2n[nH]c3c(CN[C@@H]4CCC(F)(F)C4)nc(C(F)(F)F)cc23)c1)C1CCC1 ; Ki = 55.3

response.value for Cn1cnnc1[C@@H](c1cccc(-c2n[nH]c3c(CNC4CCOCC4)nc(C(F)(F)F)cc23)c1)C1CCC1 (field: Ki) = 23.4

###

- SYSTEM TESTED: CBL-B (Homo sapiens, UniProt Q13191)
- Construct: endogenous in cells; host or cells: Jurkat HiBit-IL2 reporter cells, C-CBL knocked out by CRISPR
- ASSAY NAME: Jurkat HiBit-IL2 assay (c-CBL KO), reporter cell line expressing CBL-B only
- Format: cell-based
- EXPERIMENTAL CONTEXT: c-CBL KO (CBL-B only), anti-CD3/anti-CD28 stimulation 4 hours, geometric mean, Table 16a, read-out: C-CBL KO EC50 (nM) GMean
Rule: EC50 below 70 nM gives class 1, anything at or above gives class 0.

Task item: A record lists C[C@H]1CN([C@@H](C)c2nc(C(F)(F)F)cc3c(-c4cccc(C5(Cc6nncn6C)COC5)c4)n[nH]c23)CCO1 (single isomer, unassigned) [Example D11] . Is its EC50 below 70 nM?
Reply: class 0

Task item: Does the reported EC50 of the following molecule sit strictly below 70 nM? CC(C)NC(C)c1nc(C(F)(F)F)cc2c(-c3cccc([C@H](c4nncn4C)C4CCC4)c3)n[nH]c12 (single isomer, unassigned) [Example C34]
Reply: class 1

Task item: For this molecule, is EC50 lower than 70 nM? CC(NC(=O)CO)c1nc(C(F)(F)F)cc2c(-c3cccc([C@H](c4nncn4C)C4CCC4)c3)n[nH]c12 (single isomer, unassigned) [Example I1]
Reply: class 1

Task item: Hello, is EC50 of the following molecule strictly smaller than 70 nM? C[C@H](O)C(=O)N[C@@H](C)c1nc(C(F)(F)F)cc2c(-c3cccc([C@H](c4nncn4C)C4CCC4)c3)n[nH]c12 (single isomer, unassigned) [Example I3]
Reply: class 1

Task item: Lab note: confirm whether the reported EC50 for this molecule is below 70 nM, equality not counting. molecule: C[C@@H]1CCCN([C@@H](C)c2nc(C(F)(F)F)cc3c(-c4cccc(C5(Cc6nncn6C)COC5)c4)n[nH]c23)C1 (single isomer, unassigned) [Example D13]
Reply: class 0

###

- SYSTEM TESTED: WT CBL-B (36-427) (Homo sapiens)
- Construct: N-terminal biotinylated WT CBL-B (36-427) and C-CBL (46-435) were captured on a streptavidin (SA) coated sensor chip
- ASSAY NAME: Surface Plasmon Resonance (SPR) assay, binding affinity and kinetics, CBL-B
- EXPERIMENTAL CONTEXT: SPR at 10° C., biotinylated WT CBL-B (36-427) on streptavidin chip; geometric mean; read-out: CBL-B SPR Kd (nM) GMean
Exercise: for every item that follows, state its recorded Kd.
// note: answer is a bare numeric in nM

The measured Kd associated with Cn1cnnc1CC1(c2cccc(-c3n[nH]c4c(CN5CC[C@@H](F)C5)nc(C(F)(F)F)cc34)c2)COC1 reads 10.8

# Kd (compound: Cn1cnnc1[C@@H](c1cccc(-c2n[nH]c3c(CN4C[C@H](O)[C@@H](O)C4)nc(C(F)(F)F)cc23)c1)C1CCC1 ) is 2.5

The reported Kd of the compound C[C@@H](c1nc(C(F)(F)F)cc2c(-c3cccc(C4(Cc5nncn5C)COC4)c3)n[nH]c12)N1CC[C@H](F)C1 (single isomer, unassigned) [Example D97] was 31.9
